# Tested on: 60 cancer cell lines (NCI 60 cancer cell line series)
# assay.explanation: NCI-DTP in vitro cancer screen, sulforhodamine B (SRB) growth inhibition, 48 hour exposure
# Format: cell-based, human
experimental.endpoint: sensitivity class Renal SN12C CL9008
Answers are plain numbers.

Example cases with answers are listed next.
OC[C@H]1O[C@@H](n2cnc3c2N=CNC[C@H]3O)C[C@@H]1O = 2
O=NN(CCCl)C(=O)NCCCl = 2
CC(=O)O[C@H]1C(=O)[C@@]2(C)[C@H]([C@H](OC(=O)c3ccccc3)[C@]3(O)C[C@H](OC(=O)[C@H](O)[C@@H](NC(=O)c4ccccc4)c4ccccc4)C(C)=C1C3(C)C)[C@]1(OC(C)=O)CO[C@@H]1C[C@@H]2O [TAXOL, paclitaxel, reference compound] = 2

Consider the record given below.
# compound Nc1ccn([C@@H]2O[C@H](CO)[C@@H](O)[C@@H]2O)c(=O)n1 ; its sensitivity class Renal SN12C CL9008 = 2

====

# Test system: 60 cancer cell lines (NCI 60 cancer cell line series)
# assay.explanation: NCI-DTP in vitro cancer screen, sulforhodamine B (SRB) growth inhibition, 48 hour exposure
# Assay type: cell-based, human
# condition.details: Melanoma LOX IMVI CL10001
Counter-ions that a name gives are not always drawn.
Record form. Attribute: classification of cell line as Low(1), Medium(2) or High(3) sensitivity to compound. Fill in for each entry.
One number for each entry.

Example cases with answers are listed next.
Sc1ncnc2nc[nH]c12 = 3
O=C1c2c(O)ccc(O)c2C(=O)c2c(NCCNCCO)ccc(NCCNCCO)c21 = 2
COc1cccc2c1C(=O)c1c(O)c3c(c(O)c1C2=O)C[C@@](O)(C(=O)CO)C[C@@H]3O[C@H]1C[C@H](N)[C@H](O)[C@H](C)O1 = 2
CC[C@@]1(O)C(=O)OCc2c1cc1n(c2=O)Cc2cc3c(CN(C)C)c(O)ccc3nc2-1 = 3
N[C@@H](Cc1ccc(N(CCCl)CCCl)cc1)C(=O)O = 2
NC(=O)NO [Hydroxyurea] = 2

Provide reported classification of cell line as Low(1), Medium(2) or High(3) sensitivity to compound for each item, in the same order as listed.
1. COc1cccc2c1C(=O)c1c(O)c3c(c(O)c1C2=O)C[C@@](O)(C(=O)CO)C[C@@H]3O[C@H]1C[C@H](N)C[C@H](C)O1
2. CN(Cc1cnc2nc(N)nc(N)c2n1)c1ccc(C(=O)N[C@@H](CCC(=O)O)C(=O)O)cc1 [Methotrexate]
3. COc1cc([C@@H]2c3cc4c(cc3[C@@H](O[C@@H]3O[C@@H]5CO[C@@H](C)O[C@H]5[C@H](O)[C@H]3O)[C@H]3COC(=O)[C@H]23)OCO4)cc(OC)c1O [Etoposide]
4. OC[C@H]1O[C@@H](n2cnc3c2N=CNC[C@H]3O)C[C@@H]1O

## Output
1: 2; 2: 3; 3: 2; 4: 2

Provide reported classification of cell line as Low(1), Medium(2) or High(3) sensitivity to compound for each item, in the same order as listed.
1. COc1cc([C@@H]2c3cc4c(cc3[C@@H](O[C@@H]3O[C@@H]5CO[C@@H](c6cccs6)O[C@H]5[C@H](O)[C@H]3O)[C@H]3COC(=O)[C@H]23)OCO4)cc(OC)c1O [Teniposide]
2. O=c1[nH]cc(F)c(=O)[nH]1
3. N.N.[Cl][Pt][Cl] [cisplatin, cis-Diamminedichloroplatinum (II), reference compound]
4. CC[C@]1(O)C[C@H]2CN(CCc3c([nH]c4ccccc34)[C@@](C(=O)OC)(c3cc4c(cc3OC)N(C=O)[C@H]3[C@@](O)(C(=O)OC)[C@H](OC(C)=O)[C@]5(CC)C=CCN6CC[C@]43[C@@H]65)C2)C1 [Vincristine sulfate]

## Output
1. 2
2. 2
3. 3
4. 3

====

# Tested on: 60 cancer cell lines (NCI 60 cancer cell line series)
# assay.explanation: NCI-DTP in vitro cancer screen, sulforhodamine B (SRB) growth inhibition, 48 hour exposure
# Type: cell-based, human
# condition.details: cell line Renal CAKI-1, CL9015
Structures can show the parent of a compound that is named as a salt.
experimental.endpoint: sensitivity class Renal CAKI-1 CL9015
One number for each entry.

Example cases with answers are listed next.
Sc1ncnc2nc[nH]c12 = 2
CC[C@]1(O)C[C@H]2CN(CCc3c([nH]c4ccccc34)[C@@](C(=O)OC)(c3cc4c(cc3OC)N(C=O)[C@H]3[C@@](O)(C(=O)OC)[C@H](OC(C)=O)[C@]5(CC)C=CCN6CC[C@]43[C@@H]65)C2)C1 [Vincristine sulfate] = 2
NC(=O)NO [Hydroxyurea] = 3
CC[C@@]1(O)C(=O)OCc2c1cc1n(c2=O)Cc2cc3c(CN(C)C)c(O)ccc3nc2-1 = 3
COc1cc([C@@H]2c3cc4c(cc3[C@@H](O[C@@H]3O[C@@H]5CO[C@@H](C)O[C@H]5[C@H](O)[C@H]3O)[C@H]3COC(=O)[C@H]23)OCO4)cc(OC)c1O [Etoposide] = 2
O=c1[nH]cc(F)c(=O)[nH]1 = 3

Consider the record given below.
# compound COc1cc([C@@H]2c3cc4c(cc3[C@@H](O[C@@H]3O[C@@H]5CO[C@@H](c6cccs6)O[C@H]5[C@H](O)[C@H]3O)[C@H]3COC(=O)[C@H]23)OCO4)cc(OC)c1O [Teniposide] ; its sensitivity class Renal CAKI-1 CL9015 = 3

====

Record form. Attribute: sensitivity class Renal UO-31 CL9004. Fill in for each entry.
# Tested on: 60 cancer cell lines (NCI 60 cancer cell line series)
# assay.explanation: NCI-DTP in vitro cancer screen, sulforhodamine B (SRB) growth inhibition, 48 hour exposure
# Assay type: cell-based, human
# condition.details: cell line Renal UO-31, CL9004

Example cases with answers are listed next.
N[C@@H](Cc1ccc(N(CCCl)CCCl)cc1)C(=O)O [Melphalan] = 2
COc1cccc2c1C(=O)c1c(O)c3c(c(O)c1C2=O)C[C@@](O)(C(C)=O)C[C@@H]3O[C@H]1C[C@H](N)[C@H](O)[C@H](C)O1 [Daunorubicin] = 1
O=c1[nH]cc(F)c(=O)[nH]1 [5-Fluorouracil] = 2

Consider the record given below.
# molecule CC[C@@]1(O)C(=O)OCc2c1cc1n(c2=O)Cc2cc3c(CN(C)C)c(O)ccc3nc2-1 [Topotecan] ; its sensitivity class Renal UO-31 CL9004 = 2

====

Record form. Attribute: sensitivity class Renal TK10 CL9024. Fill in for each entry.
# System: 60 cancer cell lines (NCI 60 cancer cell line series)
# assay.explanation: NCI-DTP in vitro cancer screen, sulforhodamine B (SRB) growth inhibition, 48 hour exposure
# Type: cell-based, human
# condition.details: cell line Renal TK10, CL9024
Give bare numbers.

Example cases with answers are listed next.
COc1cc([C@@H]2c3cc4c(cc3[C@@H](O[C@@H]3O[C@@H]5CO[C@@H](C)O[C@H]5[C@H](O)[C@H]3O)[C@H]3COC(=O)[C@H]23)OCO4)cc(OC)c1O [Etoposide] = 2
COc1cccc2c1C(=O)c1c(O)c3c(c(O)c1C2=O)C[C@@](O)(C(=O)CO)C[C@@H]3O[C@H]1C[C@H](N)[C@H](O)[C@H](C)O1 [Adriamycin] = 2
O=C1c2c(O)ccc(O)c2C(=O)c2c(NCCNCCO)ccc(NCCNCCO)c21 [Mitoxantrone] = 1
CN(Cc1cnc2nc(N)nc(N)c2n1)c1ccc(C(=O)N[C@@H](CCC(=O)O)C(=O)O)cc1 [Methotrexate] = 1
COc1cc([C@@H]2c3cc4c(cc3[C@@H](O[C@@H]3O[C@@H]5CO[C@@H](c6cccs6)O[C@H]5[C@H](O)[C@H]3O)[C@H]3COC(=O)[C@H]23)OCO4)cc(OC)c1O [Teniposide] = 2

Provide reported sensitivity class Renal TK10 CL9024 for each item, in the same order as listed.
1. COc1cccc2c1C(=O)c1c(O)c3c(c(O)c1C2=O)C[C@@](O)(C(=O)CO)C[C@@H]3O[C@H]1C[C@H](N)C[C@H](C)O1 [Deoxydoxorubicin]
2. N[C@@H](Cc1ccc(N(CCCl)CCCl)cc1)C(=O)O [Melphalan]
3. O=c1[nH]cc(F)c(=O)[nH]1 [5-Fluorouracil]

## Output
1
1
1

====

Record form. Attribute: classification of cell line as Low(1), Medium(2) or High(3) sensitivity to compound. Fill in for each entry.
# Tested on: 60 cancer cell lines (NCI 60 cancer cell line series)
# assay.explanation: NCI-DTP in vitro cancer screen, sulforhodamine B (SRB) growth inhibition, 48 hour exposure
# Assay type: cell-based, human
# condition.details: Leukemia HL-60(I) (CL7008)
Counter-ions that a name gives are not always drawn.
One number for each entry.

Example cases with answers are listed next.
NC(=O)NO [Hydroxyurea] = 3
COc1cccc2c1C(=O)c1c(O)c3c(c(O)c1C2=O)C[C@@](O)(C(=O)CO)C[C@@H]3O[C@H]1C[C@H](N)[C@H](O)[C@H](C)O1 = 2
CC[C@]1(O)C[C@@H]2CN(CCc3c([nH]c4ccccc34)[C@@](C(=O)OC)(c3cc4c(cc3OC)N(C)[C@H]3[C@@](O)(C(=O)OC)[C@H](OC(C)=O)[C@]5(CC)C=CCN6CC[C@]43[C@@H]65)C2)C1 [Vinblastine sulfate] = 3
N.N.[Cl][Pt][Cl] [cisplatin, cis-Diamminedichloroplatinum (II), reference compound] = 3
CC[C@]1(O)C[C@H]2CN(CCc3c([nH]c4ccccc34)[C@@](C(=O)OC)(c3cc4c(cc3OC)N(C=O)[C@H]3[C@@](O)(C(=O)OC)[C@H](OC(C)=O)[C@]5(CC)C=CCN6CC[C@]43[C@@H]65)C2)C1 [Vincristine sulfate] = 3
Sc1ncnc2nc[nH]c12 = 2
N[C@@H](Cc1ccc(N(CCCl)CCCl)cc1)C(=O)O = 3
O=c1[nH]cc(F)c(=O)[nH]1 = 2
OC[C@H]1O[C@@H](n2cnc3c2N=CNC[C@H]3O)C[C@@H]1O = 2
COc1cc([C@@H]2c3cc4c(cc3[C@@H](O[C@@H]3O[C@@H]5CO[C@@H](c6cccs6)O[C@H]5[C@H](O)[C@H]3O)[C@H]3COC(=O)[C@H]23)OCO4)cc(OC)c1O [Teniposide] = 3

Provide reported classification of cell line as Low(1), Medium(2) or High(3) sensitivity to compound for each item, in the same order as listed.
1. CN(Cc1cnc2nc(N)nc(N)c2n1)c1ccc(C(=O)N[C@@H](CCC(=O)O)C(=O)O)cc1 [Methotrexate]
2. COc1cccc2c1C(=O)c1c(O)c3c(c(O)c1C2=O)C[C@@](O)(C(C)=O)C[C@@H]3O[C@H]1C[C@H](N)[C@H](O)[C@H](C)O1
3. COc1cc([C@@H]2c3cc4c(cc3[C@@H](O[C@@H]3O[C@@H]5CO[C@@H](C)O[C@H]5[C@H](O)[C@H]3O)[C@H]3COC(=O)[C@H]23)OCO4)cc(OC)c1O [Etoposide]
4. O=C1c2c(O)ccc(O)c2C(=O)c2c(NCCNCCO)ccc(NCCNCCO)c21

## Output
1. 2
2. 3
3. 2
4. 3
